# Protocol Summary: soluble fraction after stress (log2 fold change); higher = more stays soluble; pooled small domains, quantitative proteomics
# Condition Context: stress: pH 4
Entries and their measured soluble fraction (log2) follow.

Here is how some sequences turned out for soluble fraction (log2).
HMYTLGEESDGTVRLLELYDIIKNKNEKIFVVDELDRSLHPNLTFNFVKKYLSIENKSQLIVSTH : -1.11
HMNGLNISYRMDGENVVETIVFPDATMIRTIAPNGVMTIKTIEDGSVSTSELKADYKLYKKIYESQY : -0.401
HMERTQSIEAAREQLGEVTKDNVFETETLGALAILKENEPGEYAKIKADLKGKINMNDLERAVKKAAADQR : -0.0729
HMNMVSGHLQVKKGYYYAVLSFYDSKNKRHVKYISTGLPEKGNKRKAEAELVKIRNAFEPPAE : -0.0995
HMGKTIIQLATDYLIKNMQPKSLHDIESYVLTRKKIKKSSIGAILLSKPNIFGRTEDGLFGLRIWNNFQYT : -0.14
HMKYLREEDYLPIGSIIRLDDRNFRVDHVNFMFKSVSLQDMDLTNSGQPIFRSESLPHIRELYEQQQNELV : -1.09

Proceed to the following item.
I would be grateful if you could share the reported soluble fraction (log2) for `HMKDLIGEAKAKELALGHAKLSASDVTFIHVELDWENGRRVYDVEFYSGAKEYDYEIDAKTGEIVSFDY` . 0.00222

* * *

Reported soluble fraction (log2) values for the following sequences.
# Protocol Summary: soluble fraction after stress (log2 fold change); higher = more stays soluble; pooled small domains, quantitative proteomics
# Condition Context: stress: pH 4

Known soluble fraction (log2) results, listed for orientation:
HMKRTMVEAAMVAKLFNLTVRRIQQLTQDGVLTTELVDKKRRYDLLLTVQKYIAYLQEKVAK : ≥ 0.43
HMQDRDKNVPAGKELLDNEIARLNMSLKQVEQFALPRYNLKTLEDLYSGIGSGDIRLNHLINFLQSKLI : -0.892
HMGVQKGKDNALAVQQWIAERDATGDFGEYERRGIINRSALFDELGIPRSSMGSNDQIRQMIEAADVRWF : -0.663
HMRIGINDRIHEIVDVLRLKKSTPFEDLFSGLVTRFDLVITFLALLEMGKLRLLRLYQTDPLAPLHVEYTG : 0.0416
HMIDQSVVVQYLSKLTNTPYLKTREITMGEPYMQFERGEIKFQEYVEDIRALLPGGDRIDADRLRDIWMNS : -0.721
HMVGADTISDLISQRGRMIGDKPITNAVIKSGSEFSTINALSKAIASGDARTNDVEGMKPVFR : -0.0241
HMPFTLDGVNEGSRNDQAARMSGYLISKNLNMDFIKFFMQSWNRQNSPPLSQREINSVVDNVKRTHDRKNK : -0.697
HMLAPLAEMRGDTLDRLEKAVLELFSSRDFHEVSLQDVARRANVSLQTIYKYFGSKEALVYTMLDTLLGR : -0.87

Looking for the measured soluble fraction (log2) of `HMEQVPEAVGRRVRQARSDRGWTLDQLAERSEVSRRMIVNVEAGTSNASIATLLRLATALNVGLAELVA` , can you help? -0.685

Query: soluble fraction (log2); subject: `HMEGRTVMATTAVNVRSGPGTSYKILGVLYPGHTAQQIGNTRYGWAQVTWKGHTAYIAARYLRDS` 0.301

Which soluble fraction (log2) is reported for this sequence? `HMVTGSIYERKGIYYAIVSYYVDGRRKQKSVSTGLSVKGNKRRALEFLENLKRTYETKESMENMD` ≥ 0.43

I'd like to know its soluble fraction (log2). The sequence in question is `HMGSREVPFSDFISKVESGSVLEVVLRGRQVEGLTDANERFQTQIPNYPALFEILERNQVRTRVEPT` -0.814

Entry `HMEGVSPQTVQEHIRRFIAAEDPASPLSDEALREALGNLGINASRRTVAKYRGEMGIPSSAQRKR` has what soluble fraction (log2)? 0.00892

Give its soluble fraction (log2) value. Item: `HMLYKNIAKKLRFRINSDEFAIGDVLPTERQLMEEYQASRVSIRKAIDELVAIDLIEKKQGSGTYIKQKEV` -0.493

Bench note: what soluble fraction (log2) did `HMIDAKTTLQELTQKSGKKPEYRLIKIEGPDHLRRFTVEVFIDGQSMGTGTGHSKKEAEQNAANFALKNLQ` show? ≥ 0.43

Which soluble fraction (log2) is listed for `HMIQLTDAEFNELVTYIKKNYGINLIKKRLLIEARMYSVLAKHGFTSFTEYINLIKRDPAELNTMLNKLTT` ? 0.126

# get_value(readout='soluble fraction (log2)', item= `HMARNHYETLGVGRTATGDEIRKAYRSEAQKHHPDRGGDAERMQSLNEARDTLLDDQARAAYDQELDL` ) -0.0435

What value of soluble fraction (log2) has been recorded for this entry: `HMKETLSDTVSRKLEDMITTQMKAGNRLPTEMVLAEMYSVGRSTIRESLKALSSKGLIVRKKDGTFVSDRV` 0.22

Item `HMTEQKNNEQQNAVNEKKQALKQLMEKGKEKGSLSYNEVNALLDKLEFTEDQKAIVYDQLHSEDIELQ` has what recorded soluble fraction (log2)? 0.22

Which soluble fraction (log2) reading was recorded for the sequence `HMRRVRRTRRLLQDGLLGLMQHKAVADISVKELAEAADVARATVYVHFKDPADVLHQLEQGLY` ? -0.151

soluble fraction (log2) for `HMIEINNLEDLKLMKEFILKNGKYGFGVFVGGKYIGLSDIGSVNSFKDTLGLPVVSLGNDDFKRFTEAH` ? -0.653
